test: protein stability index of a GFP-peptide fusion (yeast GPS) (PSI 1-4); higher = more stable; sorted into four equal gates, so the index is relative within each strain; conditions: pdr5∆
Classification by protein stability index follows these ranges: bottom range = under 2, center range = from 2 up to 3, top range = 3 and over

Some solved cases for reference:
CONSTRUCT_SEQUENCE	ASSIGNED_CLASS
HVVTREKGPQVCAKLFG [RPO21]	center range
LSLKRTLTDILEDELYH [RPN4]	top range
GWWGHMGGPKQKGITSY [QCR8]	center range
VAARAEILRIHSRKMNL [RPT6]	center range
DCNSALDQLLVLEKKTR [RPN5]	center range

stdin: // return the class label for DGFKIYDNEKTAELIKE [PUP2]
stdout: top range

stdin: Next up: LDDITDSNTTEILTSVD [SIR4]
stdout: top range

stdin: Next up: LKQNAIRARIPFYGSYT [SRP54]
stdout: center range

stdin: Next up: AIKKKEKLLRHVDSLIE [SRB7]
stdout: center range

stdin: Next up: QPKPLFSFGKSDAAKEP [YOR098C/NUP1]
stdout: center range

* * *

Each record here notes measured protein stability index.
experiment: protein stability index of a GFP-peptide fusion (yeast GPS) (PSI 1-4); higher = more stable; sorted into four equal gates, so the index is relative within each strain; conditions: san1∆
The answer should be a number; do not append a unit.

// known answers, use as guide
CONSTRUCT_SEQUENCE	MEAS_VALUE
FHAEPSGTFYRYNAKAI [PUP2]	2.87
YSTLKELLEYSDDIAEN [YCG1]	2.74
LNSYWVNQDSTYKYFEV [RPL15A]	3.32
ELDILNKGWKLQSLNES [SRB4]	3
GINKIPPKPRKVLQLLR [RPL7A]	3.22
MGRMHSAGKGISSSAIP [RPS13]	3.11
RLGEMERDCVIAYGASQ [RET1]	2.55
NEAGRKLSDIFLSKPSK [SNF2]	3.21

stdin: Record request: protein stability index value, item SFGTANTNGTNASANST [YOR098C/NUP1]
stdout: 2.75

stdin: Next up: FLPRKRAASIRARVKAF [RPL3]
stdout: 1.15

stdin: Next up: RAYRIIRAHQTELTHHL [QCR7]
stdout: 3.01

* * *

assay: protein stability index of a GFP-peptide fusion (yeast GPS) (PSI 1-4); higher = more stable; sorted into four equal gates, so the index is relative within each strain; details: ubr1∆
Label yes (1) when protein stability index is at or above 3; otherwise label no (0).

Some solved cases for reference:
CONSTRUCT_SEQUENCE	ASSIGNED_CLASS
VTIIEPKEEEPILAPSV [RPS3]	no (0)
SAEYLQMSLEANVVDIT [YJR042W/NUP85]	no (0)
KNEEAEIEVDEMEVDAE [RPN1]	yes (1)

stdin: # check: protein stability index of NQILQTEIENYLLENNQ [YDL116W/NUP84] is greater than or equal to 3
stdout: no (0)

stdin: Next up: SGEDVIIGKTTPISPDE [RPB2]
stdout: yes (1)

* * *

test: protein stability index of a GFP-peptide fusion (yeast GPS) (PSI 1-4); higher = more stable; sorted into four equal gates, so the index is relative within each strain; conditions: doa10∆
PROPERTY: protein stability index

CONSTRUCT_SEQUENCE	MEAS_VALUE
SPAALKQLASLKKSEEI [YMR153W/NUP53]	2.2
NFLETIASTEKPENKTD [SIR4]	2.94
LSFSWAILLIINLTQTY [NUT1]	1.5
WLKNKFAEENITHKLTK [BRR2]	3.13
ILHGSKSQEQREHSLQL [PRP28]	3.11
YLFHNDRIIHTWRTQLA [ECM29]	1.55
DDHSQVINPQQLLKGLS [DSN1]	3.17
FMRNGLLEGLNEKIEKR [UBP6]	2.99
SDTSKPAFTFGAQKDNE [YJL041W/NSP1]	3.32
NKTLTLDLKECYQFAEY [ARP7]	1.96

stdin: Record request: protein stability index value, item GTNPLSSDGAYTEQFQH [SSN2]
stdout: 3.23

stdin: Next up: GDMTNSDAQSNLGSNVR [REC8]
stdout: 2.92

stdin: Next up: VMSIESLVEVVFYRGMT [FAS1]
stdout: 1.89

stdin: Next up: KETWLHELSSSHTSLVK [SRB8]
stdout: 1.81

stdin: Next up: MYQMITMGGNAELELVD [SMC4]
stdout: 2.81

stdin: Next up: LNLTGPKVPEDIYKSHL [RPN1]
stdout: 2.9

stdin: Next up: ERPAIEFETPTFLVSND [RPN14]
stdout: 3

stdin: Next up: VLKFLTDLEKKHLWDQK [RPC17]
stdout: 3.14

stdin: Next up: GAAFKVISNLVPKLESS [YJL039C/NUP192]
stdout: 2.86

stdin: Next up: TASVEKAEFSKEMTLQK [YIL149C/MLP2]
stdout: 3.25

Origin of the recorded values: the supplement of paper PMC9732359
